# System: K562
# PROCEDURE_TEXT: SRB anti-proliferative assay, K562
# Assay type: cell-based, Human
# CONDITION_INFO: K562; Human leukemia; concentration of drug causing 50% inhibition of cell growth; read-out: GI50 K562
READOUT_LABEL: GI50 (nM)

Use these answered entries as a reference point.
COMPOUND | GI50 (nM)
COc1cc(/C=C/C(=O)Nc2c(C=Cc3cc(OC)c(OC)c(OC)c3)ccc(OC)c2O)ccc1O [Compound 20t] | 93
C=CCOc1cccc(/C=C/C(=O)Nc2c(C=Cc3cc(OC)c(OC)c(OC)c3)ccc(OC)c2O)c1 [Compound 20i] | 91
COc1cc(/C=C/C(=O)Nc2c(C=Cc3cc(OC)c(OC)c(OC)c3)ccc(OC)c2O)ccc1N [Compound 20v] | 82
COc1ccc(/C=C/C(=O)Nc2c(C=Cc3cc(OC)c(OC)c(OC)c3)ccc(OC)c2O)cc1N [Compound 20z] | 89

A. COc1ccc(/C=C/C(=O)Nc2c(C=Cc3cc(OC)c(OC)c(OC)c3)ccc(OC)c2O)cc1OC [Compound 20s]
B. COc1ccc(/C=C/C(=O)Nc2c(C=Cc3cc(OC)c(OC)c(OC)c3)ccc(OC)c2O)cc1[N+](=O)[O-] [Compound 20y]
C. COc1ccc(/C=C/C(=O)Nc2c(C=Cc3cc(OC)c(OC)c(OC)c3)ccc(OC)c2O)cc1O [Compound 20x]
Problem: Rank order required: GI50, descending. // list labels; follow requested order
Solution: B, C, A
(B: 46800 nM, C: 23700 nM, A: 94 nM)
